Attribution: ChEMBL document CHEMBL5365447

I'd appreciate it if you could supply selectivity ratio values for the items below.
assay: Selectivity index, ratio of CC50 for human CEM cells to EC50 for HIV-2 ROD infected in thymidine kinase-deficient human CEM cells; type: toxicity; settings: read-out: Ratio CC50/EC50

Documented selectivity ratio of CCCCOP(=O)(O)OP(=O)(O)OC[C@@H]1C=C[C@H](n2cc(C)c(=O)[nH]c2=O)O1.N.N : > 2

Documented selectivity ratio of CCCCC(=O)Oc1ccc(COP(=O)(OC)OP(=O)(O)OC[C@@H]2C=C[C@H](n3cc(C)c(=O)[nH]c3=O)O2)cc1.N (stereo partly specified) : > 11

Documented selectivity ratio of CCCCCCCCCCCCCCCCCCOP(=O)(O)OP(=O)(O)OC[C@@H]1C=C[C@H](n2cc(C)c(=O)[nH]c2=O)O1.N.N : > 62500

Documented selectivity ratio of COP(=O)(O)OP(=O)(O)OC[C@@H]1C=C[C@H](n2cc(C)c(=O)[nH]c2=O)O1.N.N : > 2

Documented selectivity ratio of CCCCCCCCCCCCOP(=O)(OCc1ccc(OC(=O)CCCC)cc1)OP(=O)(O)OC[C@@H]1C=C[C@H](n2cc(C)c(=O)[nH]c2=O)O1.N (stereo partly specified) : > 72

Documented selectivity ratio of CCCCCCCCCCCCOP(=O)(O)OP(=O)(O)OC[C@@H]1C=C[C@H](n2cc(C)c(=O)[nH]c2=O)O1.N.N : > 9
